- test.target: Nitric oxide synthase, inducible (Mus musculus)
- Sequence (P29477 whole entry): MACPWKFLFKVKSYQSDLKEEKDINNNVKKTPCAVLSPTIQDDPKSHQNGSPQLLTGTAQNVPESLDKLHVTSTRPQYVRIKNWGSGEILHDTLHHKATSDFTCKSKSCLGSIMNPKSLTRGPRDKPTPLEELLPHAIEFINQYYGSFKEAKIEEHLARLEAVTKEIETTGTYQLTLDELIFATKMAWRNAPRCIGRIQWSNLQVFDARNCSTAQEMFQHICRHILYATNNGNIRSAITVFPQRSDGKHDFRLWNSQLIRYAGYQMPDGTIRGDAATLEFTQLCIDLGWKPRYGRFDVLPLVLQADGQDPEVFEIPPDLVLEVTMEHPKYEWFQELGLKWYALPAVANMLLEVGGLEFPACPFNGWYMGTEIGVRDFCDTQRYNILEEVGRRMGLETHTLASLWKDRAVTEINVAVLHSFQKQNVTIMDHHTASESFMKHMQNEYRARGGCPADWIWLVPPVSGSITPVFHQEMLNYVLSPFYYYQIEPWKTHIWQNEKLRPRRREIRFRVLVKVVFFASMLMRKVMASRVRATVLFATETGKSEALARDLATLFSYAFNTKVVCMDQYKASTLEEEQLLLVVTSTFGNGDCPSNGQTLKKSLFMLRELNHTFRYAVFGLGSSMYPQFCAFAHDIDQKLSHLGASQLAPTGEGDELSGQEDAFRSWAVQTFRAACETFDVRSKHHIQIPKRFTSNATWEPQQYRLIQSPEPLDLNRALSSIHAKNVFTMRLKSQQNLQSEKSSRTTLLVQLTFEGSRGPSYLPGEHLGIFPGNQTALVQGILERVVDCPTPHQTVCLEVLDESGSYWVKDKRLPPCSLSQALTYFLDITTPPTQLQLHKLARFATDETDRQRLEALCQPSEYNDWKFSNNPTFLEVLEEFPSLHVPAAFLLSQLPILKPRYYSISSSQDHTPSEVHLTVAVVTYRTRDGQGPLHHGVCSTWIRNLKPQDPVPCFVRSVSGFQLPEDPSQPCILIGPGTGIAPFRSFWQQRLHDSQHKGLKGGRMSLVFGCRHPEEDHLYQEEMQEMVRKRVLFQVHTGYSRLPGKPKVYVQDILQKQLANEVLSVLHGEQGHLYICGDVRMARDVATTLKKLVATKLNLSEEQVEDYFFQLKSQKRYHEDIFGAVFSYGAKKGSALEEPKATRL
Field IC50: reported value for Nitric oxide synthase, inducible (Mus musculus); entries drawn from several documents.
Numbers only, in µM.

Below: 5 compounds and their reported IC50.
[
  {
    "compound": "CCC[C@@H]1N=C(N)O[C@@H]1C",
    "test.target": "Nitric oxide synthase, inducible (Mus musculus)",
    "IC50 (µM)": 0.041
  },
  {
    "compound": "CCC[C@@H]1N=C(N)O[C@H]1C",
    "test.target": "Nitric oxide synthase, inducible (Mus musculus)",
    "IC50 (µM)": 0.12
  },
  {
    "compound": "CC[C@@H]1N=C(N)O[C@@H]1C",
    "test.target": "Nitric oxide synthase, inducible (Mus musculus)",
    "IC50 (µM)": 0.12
  },
  {
    "compound": "CC(=N)NCCC[C@H](N)C(=O)O",
    "test.target": "Nitric oxide synthase, inducible (Mus musculus)",
    "IC50 (µM)": 3.9
  },
  {
    "compound": "O=C(O)[C@H]1[C@H]2C=C[C@@H]3[C@@H]1C[C@H]1[C@H](CCCc4ccc5c(c4)OCO5)[C@@H]2[C@@H]31 (relative stereo)",
    "test.target": "Nitric oxide synthase, inducible (Mus musculus)",
    "IC50 (µM)": 58.2
  }
]

State recorded IC50 for all listed compounds.
1. CC[C@@H]1N=C(N)O[C@@H]1CC
2. CC(=N)NCCCC[C@H](N)C(=O)O

# output
1. 0.13
2. 3.3

====

- test.target: Nitric oxide synthase, inducible (Mus musculus, UniProt P29477)
- Sequence (P29477 whole entry): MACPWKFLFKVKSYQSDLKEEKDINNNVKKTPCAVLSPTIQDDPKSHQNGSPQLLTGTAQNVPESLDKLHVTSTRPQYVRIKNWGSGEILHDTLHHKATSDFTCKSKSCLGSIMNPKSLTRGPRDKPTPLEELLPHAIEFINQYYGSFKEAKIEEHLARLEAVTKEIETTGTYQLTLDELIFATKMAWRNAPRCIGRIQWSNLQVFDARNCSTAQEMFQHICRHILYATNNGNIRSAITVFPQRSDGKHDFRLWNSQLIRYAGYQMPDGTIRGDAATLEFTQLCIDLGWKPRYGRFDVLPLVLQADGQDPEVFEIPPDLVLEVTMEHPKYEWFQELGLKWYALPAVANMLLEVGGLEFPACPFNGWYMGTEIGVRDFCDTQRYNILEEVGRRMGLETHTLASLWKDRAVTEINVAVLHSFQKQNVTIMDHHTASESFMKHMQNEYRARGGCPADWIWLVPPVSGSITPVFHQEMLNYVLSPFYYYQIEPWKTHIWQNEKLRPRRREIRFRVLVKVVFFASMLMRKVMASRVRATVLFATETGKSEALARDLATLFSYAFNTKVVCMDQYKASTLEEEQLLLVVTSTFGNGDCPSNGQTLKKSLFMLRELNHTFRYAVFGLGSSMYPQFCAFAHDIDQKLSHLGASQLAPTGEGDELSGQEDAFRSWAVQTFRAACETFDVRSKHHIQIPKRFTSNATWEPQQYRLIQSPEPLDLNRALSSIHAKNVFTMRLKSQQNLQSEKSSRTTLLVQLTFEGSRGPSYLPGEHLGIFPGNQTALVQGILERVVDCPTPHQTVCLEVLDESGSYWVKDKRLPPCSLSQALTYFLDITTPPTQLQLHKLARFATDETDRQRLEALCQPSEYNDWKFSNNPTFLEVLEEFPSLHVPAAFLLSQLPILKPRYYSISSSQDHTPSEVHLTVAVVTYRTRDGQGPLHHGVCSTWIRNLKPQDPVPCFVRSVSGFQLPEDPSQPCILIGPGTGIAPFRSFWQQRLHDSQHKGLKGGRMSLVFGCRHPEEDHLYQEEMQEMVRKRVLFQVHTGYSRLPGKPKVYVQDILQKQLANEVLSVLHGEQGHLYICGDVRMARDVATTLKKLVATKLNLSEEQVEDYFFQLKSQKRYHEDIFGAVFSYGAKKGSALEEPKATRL
Field pIC50: reported value for Nitric oxide synthase, inducible (Mus musculus, UniProt P29477); entries drawn from several documents.
Numbers only, as −log10 of the molar value.

[
  {
    "compound": "CS/C(=N/N)NCCC[C@H](N)C(=O)O",
    "obs.value": 3.49
  },
  {
    "compound": "CC(=N)NC(c1ccccc1)C(C)C (racemic)",
    "obs.value": 5.00
  }
]

# context switch: different compound, same pIC50
# input Provide measured pIC50 value, entry: O=C(O)/C=C/[C@H]1[C@@H]2C=C[C@@H]3[C@H]1C[C@H]1[C@H](CCCCCc4ccc5c(c4)OCO5)[C@H]2[C@@H]31 (relative stereo)
# output 4.40
